Biological target: DPP IV (Homo sapiens, UniProt P27487)
Sequence (P27487 whole entry, species assumed): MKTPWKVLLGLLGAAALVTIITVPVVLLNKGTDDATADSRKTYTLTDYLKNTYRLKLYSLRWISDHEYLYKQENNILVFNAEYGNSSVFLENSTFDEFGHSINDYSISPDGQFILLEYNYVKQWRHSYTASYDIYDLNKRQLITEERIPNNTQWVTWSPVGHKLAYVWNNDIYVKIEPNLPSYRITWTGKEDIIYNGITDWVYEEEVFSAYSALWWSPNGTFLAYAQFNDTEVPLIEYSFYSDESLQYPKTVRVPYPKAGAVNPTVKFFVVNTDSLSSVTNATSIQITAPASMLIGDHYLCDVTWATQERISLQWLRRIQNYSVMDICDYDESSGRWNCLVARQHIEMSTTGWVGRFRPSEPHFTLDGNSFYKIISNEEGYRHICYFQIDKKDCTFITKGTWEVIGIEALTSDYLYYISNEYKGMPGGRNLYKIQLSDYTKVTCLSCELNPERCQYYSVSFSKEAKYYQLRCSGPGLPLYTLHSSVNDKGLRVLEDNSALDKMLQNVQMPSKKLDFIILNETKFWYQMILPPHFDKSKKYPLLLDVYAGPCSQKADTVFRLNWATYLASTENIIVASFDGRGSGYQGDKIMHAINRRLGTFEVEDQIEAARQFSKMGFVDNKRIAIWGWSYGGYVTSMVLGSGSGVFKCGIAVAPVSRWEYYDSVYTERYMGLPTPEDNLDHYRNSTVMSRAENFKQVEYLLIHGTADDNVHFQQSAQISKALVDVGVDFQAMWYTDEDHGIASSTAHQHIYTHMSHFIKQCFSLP
Test: Stability against DPP IV enzyme
Type: in vitro ADME
Settings: 2 μM peptidomimetic, 37° C., 24 h
Method: Reactions were terminated by the addition of TFA/H2O (15 mL, 10% (v/v)). […] The column was equilibrated with TFA/H20, at a flow rate of 1 mL/min.
Lab note: anything with % degradation of peptidomimetics in 24 h when incubated with DPP-IV enzyme below 70% is marked class 1; values at 70% or higher are marked class 0.

Consider CCc1cc(OC)ccc1-c1ccc(CC(NC(=O)[C@H](CC(=O)O)NC(=O)[C@H](CO)NC(=O)[C@@H](NC(=O)C(C)(Cc2ccccc2F)NC(=O)[C@@H](NC(=O)CNC(=O)C(CCC#N)NC(=O)C(C)(C)NC(=O)[C@@H](N)Cc2c[nH]cn2)[C@H](C)O)[C@@H](C)O)C(=O)NC(CCCc2ccccc2)C(N)=O)cc1 (single isomer, unassigned) . Does its % degradation of peptidomimetics in 24 h when incubated with DPP-IV enzyme lie strictly below 70%? class 1

Here is the next compound: CCc1cc(OC)ccc1-c1ccc(CC(NC(=O)[C@H](CC(=O)O)NC(=O)[C@H](CO)NC(=O)[C@@H](NC(=O)C(C)(Cc2ccccc2)NC(=O)[C@@H](NC(=O)CNC(=O)[C@H](CC(C(F)(F)F)C(F)(F)F)NC(=O)C(C)(C)NC(=O)[C@@H](N)Cc2c[nH]cn2)[C@@H](C)O)[C@@H](C)O)C(=O)NC(CCCc2ccccc2)C(N)=O)cc1 (single isomer, unassigned) class 0

Here is the next compound: CCc1cc(OC)ccc1-c1ccc(CC(CNC(CCCc2ccccc2F)C(N)=O)NC[C@H](CC(=O)O)NC(=O)[C@H](CO)NC(=O)[C@@H](NC(=O)C(C)(Cc2ccccc2F)NC(=O)[C@@H](NC(=O)CNC(=O)[C@H](CCC(N)=O)NC(=O)C(C)(C)NC(=O)[C@@H](N)Cc2c[nH]cn2)[C@H](C)O)[C@H](C)O)cc1 (single isomer, unassigned) class 1

Here is the next compound: CCc1cc(OC)ccc1-c1ccc(CC(NC(=O)[C@H](CC(=O)O)NC(=O)[C@H](CO)NC(=O)[C@@H](NC(=O)C(C)(Cc2ccccc2F)NC(=O)[C@@H](NC(=O)CNC(=O)C(CCC#N)NC(=O)C(C)(C)NC(=O)[C@@H](N)Cc2c[nH]cn2)[C@H](C)O)[C@H](C)O)C(=S)NC(CCCc2ccccc2)C(N)=O)cc1 (single isomer, unassigned) class 0

Here is the next compound: CCc1cc(OC)ccc1-c1ccc(CC(NC(=O)[C@H](CC(=O)O)NC(=O)[C@H](CO)NC(=O)[C@@H](NC(=O)[C@H](Cc2ccccc2)NC(=O)[C@@H](NC(=O)CNC(=O)C(CCC#N)NC(=O)C(C)(C)NC(=O)[C@@H](N)Cc2c[nH]cn2)[C@@H](C)O)[C@@H](C)O)C(=O)NC(CCCc2ccc(Cl)cc2C)C(N)=O)cc1 (single isomer, unassigned) class 0

Here is the next compound: CCc1cc(OC)ccc1-c1ccc(CC(NC(=S)[C@H](CC(=O)O)NC(=O)[C@H](CO)NC(=O)[C@@H](NC(=O)C(C)(Cc2ccccc2F)NC(=O)[C@@H](NC(=O)CNC(=O)C(CCC#N)NC(=O)C(C)(C)NC(=O)[C@@H](N)Cc2c[nH]cn2)[C@H](C)O)[C@H](C)O)C(=S)NC(CCCc2ccccc2F)C(N)=O)cc1 (single isomer, unassigned) class 1

Here is the next compound: CCc1cc(OC)ccc1-c1ccc(CC(NC(=O)[C@H](CC(=O)O)NC(=O)[C@H](CO)NC(=O)[C@@H](NC(=O)[C@H](Cc2ccccc2)NC(=O)[C@@H](NC(=O)CNC(=O)[C@H](CCC(N)=O)NC(=O)[C@H](CO)NC(=O)[C@@H](N)Cc2c[nH]cn2)[C@@H](C)O)[C@@H](C)O)C(=O)NC(CCCc2ccccc2Cl)C(N)=O)cc1 (single isomer, unassigned) class 0

Here is the next compound: CCc1cc(OC)ccc1-c1ccc(CC(NC(=O)[C@H](CC(=O)O)NC(=O)[C@H](CO)NC(=O)[C@@H](NC(=O)C(C)(Cc2ccccc2F)NC(=O)[C@@H](NC(=O)CNC(=O)C(CCC#N)NC(=O)C(C)(C)NC(=O)[C@@H](N)Cc2c[nH]cn2)[C@H](C)O)[C@@H](C)O)C(=O)NC(CCCc2ccccc2F)C(N)=O)cc1 (single isomer, unassigned) class 1

Here is the next compound: CCc1cc(OC)ccc1-c1ccc(CC(CNC(CCCc2ccccc2F)C(N)=O)NC[C@H](CC(=O)O)NC(=O)[C@H](CO)NC(=O)[C@@H](NC(=O)C(C)(Cc2ccccc2F)NC(=O)[C@@H](NC(=O)CNC(=O)C(CCC#N)NC(=O)C(C)(C)NC(=O)[C@@H](N)Cc2c[nH]cn2)[C@H](C)O)[C@H](C)O)cc1 (single isomer, unassigned) class 1
